target: Mitogen-activated protein kinase 3 (Homo sapiens) (UniProt P27361); settings: at 1 µM
Sequence (P27361 whole entry): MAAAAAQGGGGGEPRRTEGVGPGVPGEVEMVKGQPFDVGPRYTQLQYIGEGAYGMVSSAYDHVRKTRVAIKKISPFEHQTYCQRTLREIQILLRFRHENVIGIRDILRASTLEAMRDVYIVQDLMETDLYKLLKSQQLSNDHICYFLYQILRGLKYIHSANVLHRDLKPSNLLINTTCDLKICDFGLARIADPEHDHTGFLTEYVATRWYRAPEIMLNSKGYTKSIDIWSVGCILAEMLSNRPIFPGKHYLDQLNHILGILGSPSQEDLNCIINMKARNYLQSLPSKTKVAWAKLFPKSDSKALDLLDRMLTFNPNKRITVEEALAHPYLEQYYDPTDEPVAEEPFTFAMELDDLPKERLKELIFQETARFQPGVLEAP
Description: Millipore: Percentage of residual kinase activity of MAPK3 at 1uM relative to control. Control inhibitor: ERK Inhibitor II at 30.0uM. Buffer: 25 mM Tris pH 7.5, 0.02 mM EGTA
Please provide measured residual activity for the entries that follow.
// return numeric value only (unit: %, not printed)

Query: Output measured residual activity for this item: CC[n+]1c(/C=C/N(C)c2ccccc2)n(-c2ccccc2)c2ccc(-c3nc4ccccc4s3)cc21
Reply: 111

Query: Output measured residual activity for this item: O=c1cc(-c2cccc3c2Sc2ccccc2S3)oc(N2CCOCC2)c1
Reply: 110

Query: Output measured residual activity for this item: Cc1cc2ncc(-c3ccccc3)nc2cc1C
Reply: 87

Query: Output measured residual activity for this item: CN(C)c1ccc(/C=C2\C(=O)Nc3ccccc32)cc1
Reply: 91

Query: Output measured residual activity for this item: Ic1cccc(CSc2nnc(-c3ccncc3)o2)c1
Reply: 82

Query: Output measured residual activity for this item: c1ccc2c(-c3ccncc3)c[nH]c2c1
Reply: 77

Query: Output measured residual activity for this item: Cc1nc(-c2ccccc2)c(-c2ccncc2)o1
Reply: 116

Query: Output measured residual activity for this item: Nc1ccc2ncnc(NCCc3ccc(Oc4ccccc4)cc3)c2c1
Reply: 122

Query: Output measured residual activity for this item: COc1cccc(-c2cc(=O)c3ccccc3o2)c1N
Reply: 106

Query: Output measured residual activity for this item: CO[C@@H]1[C@H](N(C)C(=O)c2ccccc2)C[C@H]2O[C@]1(C)n1c3ccccc3c3c4c(c5c6ccccc6n2c5c31)C(=O)NC4
Reply: 75

Query: Output measured residual activity for this item: COc1cc2ncnc(Nc3ccc(O)c(Br)c3)c2cc1OC
Reply: 68

Query: Output measured residual activity for this item: Cn1cc(/C=C2\C(=O)Nc3ccc(S(N)(=O)=O)cc32)c2ccccc21
Reply: 85

Query: Output measured residual activity for this item: COc1ccc(OC)c2c(=S)c3ccccc3[nH]c12
Reply: 97

Query: Output measured residual activity for this item: O=C1NC(=O)c2c1c1c3ccccc3[nH]c1c1[nH]c3cc(Br)ccc3c21
Reply: 103

Query: Output measured residual activity for this item: CC(C)n1cnc2c(NCc3ccccc3)nc(NCCCO)nc21
Reply: 87

Query: Output measured residual activity for this item: O=C1NC(=O)/C(=C\c2ccc3nccnc3c2)S1
Reply: 82

Query: Output measured residual activity for this item: c1ccc(-c2n[nH]cc2-c2ccnc3ccccc23)nc1
Reply: 88

---

Please provide measured residual activity for the entries that follow.
target: High affinity nerve growth factor receptor (Homo sapiens) (UniProt P04629); details: at 10 µM
Sequence (P04629 33-796 limits assumed): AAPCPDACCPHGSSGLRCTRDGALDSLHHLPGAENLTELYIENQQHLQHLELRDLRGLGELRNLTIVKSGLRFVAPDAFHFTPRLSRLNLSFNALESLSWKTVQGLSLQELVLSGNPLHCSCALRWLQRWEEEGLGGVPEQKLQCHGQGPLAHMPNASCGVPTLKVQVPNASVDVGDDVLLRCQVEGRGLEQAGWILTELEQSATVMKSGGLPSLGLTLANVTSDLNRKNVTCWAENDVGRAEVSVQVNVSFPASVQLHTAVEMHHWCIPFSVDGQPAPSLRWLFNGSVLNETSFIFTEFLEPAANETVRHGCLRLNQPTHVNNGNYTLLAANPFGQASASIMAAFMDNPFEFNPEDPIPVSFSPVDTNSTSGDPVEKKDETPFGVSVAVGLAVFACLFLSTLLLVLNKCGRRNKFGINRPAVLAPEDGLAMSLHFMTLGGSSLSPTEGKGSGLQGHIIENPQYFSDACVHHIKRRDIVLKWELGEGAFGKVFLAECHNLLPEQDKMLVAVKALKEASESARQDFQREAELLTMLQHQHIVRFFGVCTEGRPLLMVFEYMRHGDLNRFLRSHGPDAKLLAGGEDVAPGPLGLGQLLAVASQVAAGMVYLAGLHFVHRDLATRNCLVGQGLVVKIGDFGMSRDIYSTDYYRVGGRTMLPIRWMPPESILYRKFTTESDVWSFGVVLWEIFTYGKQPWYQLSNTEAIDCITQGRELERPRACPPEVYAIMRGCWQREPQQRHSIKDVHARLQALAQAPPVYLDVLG
// return numeric value only (unit: %, not printed)

Query: Output measured residual activity for this item: Cc1cc(Nc2nc(-c3ccccc3)nc3ccccc23)n[nH]1
Reply: -1

Query: Output measured residual activity for this item: O=C(Nc1cccc(Nc2nccc(Nc3cccc(C(F)(F)F)c3)n2)c1)C1CC1
Reply: 1

Query: Output measured residual activity for this item: Nc1nc(Nc2ccc(S(N)(=O)=O)cc2)nn1C(=S)Nc1c(F)cccc1F
Reply: -1

Query: Output measured residual activity for this item: Oc1ccc(-c2nc(-c3ccc(F)cc3)c(-c3ccncc3)[nH]2)cc1
Reply: 83

Query: Output measured residual activity for this item: Oc1ccc(Nc2nc(-c3ccc(Cl)cc3)cs2)cc1
Reply: 64

Query: Output measured residual activity for this item: Cc1nc2cc3nc(-c4cccs4)cnc3cc2n1C
Reply: 27

Query: Output measured residual activity for this item: COc1cc2ncnc(Nc3ccc(O)c(Br)c3)c2cc1OC
Reply: 44

Query: Output measured residual activity for this item: N#CCCc1ccc2c(c1)-c1[nH]c3ccc([N+](=O)[O-])cc3c1CC(=O)N2
Reply: 23

Query: Output measured residual activity for this item: COc1cccc(-c2cc(=O)c3ccccc3o2)c1N
Reply: 92

Query: Output measured residual activity for this item: COc1ccc(CNc2nc(N(CCO)CCO)nc3c2ncn3C(C)C)cc1
Reply: 56

Query: Output measured residual activity for this item: O=c1cc(-c2cccc3c2Sc2ccccc2S3)oc(N2CCOCC2)c1
Reply: 95

Query: Output measured residual activity for this item: O=c1c2ccccc2[nH]c(=S)n1CCN1CCC(=C(c2ccc(F)cc2)c2ccc(F)cc2)CC1
Reply: 87

Query: Output measured residual activity for this item: Cc1nc(-c2ccccc2)c(-c2ccncc2)o1
Reply: 95

Query: Output measured residual activity for this item: CCN(CC)CCCCN1c2ccccc2Oc2ccc(Cl)cc21
Reply: 101

Query: Output measured residual activity for this item: O=[N+]([O-])c1ccc(-c2nc(-c3ccc(F)cc3)c(-c3ccncc3)[nH]2)cc1
Reply: 90

Query: Output measured residual activity for this item: c1ccc2c(-c3ccncc3)c[nH]c2c1
Reply: 55

Query: Output measured residual activity for this item: c1ccc(-c2n[nH]cc2-c2ccnc3ccccc23)nc1
Reply: 76

Query: Output measured residual activity for this item: CC#CC(=O)Nc1cc2c(Nc3ccc(F)c(Cl)c3)ncnc2cn1
Reply: 111

Query: Output measured residual activity for this item: O=Nc1c(-c2c(O)[nH]c3ccccc23)[nH]c2ccccc12
Reply: 0

Query: Output measured residual activity for this item: O=C1Nc2cc(Br)ccc2/C1=C1/Nc2ccccc2/C1=N\O
Reply: 0

Query: Output measured residual activity for this item: N#CC(C#N)=C(N)/C(C#N)=C/c1ccc(O)cc1
Reply: 119

Query: Output measured residual activity for this item: COc1ccc(S(=O)(=O)N(CCO)c2ccccc2CN(C)C/C=C/c2ccc(Cl)cc2)cc1
Reply: 47

Query: Output measured residual activity for this item: COc1cc2ncc(-c3ccccc3)nc2cc1OC
Reply: -1
